List of OD450 nm values.
target: HRgpA-6H (Porphyromonas gingivalis) (UniProt P28784); assay: ELISA, coated HRgpA-6H
Simply state the number, no unit and no words.

Recorded OD450 nm, per entry:
>  <BINDER>
KB001 mouse Fab VH S61H (Fab, V domains shown) VH: EVQLKQSGPGLVAPSQSLSITCTVSGFSLSIYSVHWVRQPPGKGLEWLGMIWGGGSSDYNHALKSRLSISKDNSKSQVFLKMNSLQTDDTAMYYCARNGNFYAMDYWGQGTSVTVSS VL: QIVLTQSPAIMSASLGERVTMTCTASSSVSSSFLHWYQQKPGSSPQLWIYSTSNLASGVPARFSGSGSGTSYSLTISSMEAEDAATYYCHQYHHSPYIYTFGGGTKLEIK

>  <DATA VALUE>
0.469

$$$$
>  <BINDER>
KB001 mouse Fab VL S26G (Fab, V domains shown) VH: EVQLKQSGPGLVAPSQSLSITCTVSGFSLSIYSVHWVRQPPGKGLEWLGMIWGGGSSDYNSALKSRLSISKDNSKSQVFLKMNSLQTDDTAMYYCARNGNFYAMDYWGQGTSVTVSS VL: QIVLTQSPAIMSASLGERVTMTCTAGSSVSSSFLHWYQQKPGSSPQLWIYSTSNLASGVPARFSGSGSGTSYSLTISSMEAEDAATYYCHQYHHSPYIYTFGGGTKLEIK

>  <DATA VALUE>
0.73

$$$$
>  <BINDER>
KB001 mouse Fab VH K64Y (Fab, V domains shown) VH: EVQLKQSGPGLVAPSQSLSITCTVSGFSLSIYSVHWVRQPPGKGLEWLGMIWGGGSSDYNSALYSRLSISKDNSKSQVFLKMNSLQTDDTAMYYCARNGNFYAMDYWGQGTSVTVSS VL: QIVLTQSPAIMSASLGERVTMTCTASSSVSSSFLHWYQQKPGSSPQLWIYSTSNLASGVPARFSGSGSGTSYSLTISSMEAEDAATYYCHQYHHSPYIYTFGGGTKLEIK

>  <DATA VALUE>
0.763

$$$$

Q. I'd like to know its OD450 nm. The binder in question is KB001 mouse Fab VL L55S (Fab, V domains shown) VH: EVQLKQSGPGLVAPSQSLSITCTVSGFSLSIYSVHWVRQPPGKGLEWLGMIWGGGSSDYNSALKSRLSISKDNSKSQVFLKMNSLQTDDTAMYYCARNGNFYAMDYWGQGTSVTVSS VL: QIVLTQSPAIMSASLGERVTMTCTASSSVSSSFLHWYQQKPGSSPQLWIYSTSNSASGVPARFSGSGSGTSYSLTISSMEAEDAATYYCHQYHHSPYIYTFGGGTKLEIK
A. 0.672

Q. And the next one, KB001 mouse Fab VH A62E (Fab, V domains shown) VH: EVQLKQSGPGLVAPSQSLSITCTVSGFSLSIYSVHWVRQPPGKGLEWLGMIWGGGSSDYNSELKSRLSISKDNSKSQVFLKMNSLQTDDTAMYYCARNGNFYAMDYWGQGTSVTVSS VL: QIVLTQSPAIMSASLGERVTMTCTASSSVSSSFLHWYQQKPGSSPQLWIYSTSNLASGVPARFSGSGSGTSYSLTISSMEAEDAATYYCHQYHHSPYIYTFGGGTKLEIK ?
A. 0.854

Q. Can you check KB001 mouse Fab VL T52M (Fab, V domains shown) VH: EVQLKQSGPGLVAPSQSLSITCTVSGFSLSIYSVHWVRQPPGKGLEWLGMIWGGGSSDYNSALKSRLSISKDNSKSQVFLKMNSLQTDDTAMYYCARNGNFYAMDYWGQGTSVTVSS VL: QIVLTQSPAIMSASLGERVTMTCTASSSVSSSFLHWYQQKPGSSPQLWIYSMSNLASGVPARFSGSGSGTSYSLTISSMEAEDAATYYCHQYHHSPYIYTFGGGTKLEIK next?
A. 0.662

Q. Another: KB001 mouse Fab VH S57R (Fab, V domains shown) VH: EVQLKQSGPGLVAPSQSLSITCTVSGFSLSIYSVHWVRQPPGKGLEWLGMIWGGGSRDYNSALKSRLSISKDNSKSQVFLKMNSLQTDDTAMYYCARNGNFYAMDYWGQGTSVTVSS VL: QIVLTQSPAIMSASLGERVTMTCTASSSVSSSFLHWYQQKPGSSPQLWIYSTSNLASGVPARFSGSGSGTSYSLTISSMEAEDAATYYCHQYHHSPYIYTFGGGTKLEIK
A. 0.796

Q. Thanks! And KB001 mouse Fab VH Y106R (Fab, V domains shown) VH: EVQLKQSGPGLVAPSQSLSITCTVSGFSLSIYSVHWVRQPPGKGLEWLGMIWGGGSSDYNSALKSRLSISKDNSKSQVFLKMNSLQTDDTAMYYCARNGNFYAMDRWGQGTSVTVSS VL: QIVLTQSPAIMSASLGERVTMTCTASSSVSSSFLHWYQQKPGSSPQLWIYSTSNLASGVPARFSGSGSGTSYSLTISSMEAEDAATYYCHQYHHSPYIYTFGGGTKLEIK ?
A. 0.793

Q. Proceed to KB001 mouse Fab VL N54K (Fab, V domains shown) VH: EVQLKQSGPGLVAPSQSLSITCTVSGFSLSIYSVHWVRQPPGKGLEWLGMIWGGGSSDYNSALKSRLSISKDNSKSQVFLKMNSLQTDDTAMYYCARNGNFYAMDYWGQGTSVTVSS VL: QIVLTQSPAIMSASLGERVTMTCTASSSVSSSFLHWYQQKPGSSPQLWIYSTSKLASGVPARFSGSGSGTSYSLTISSMEAEDAATYYCHQYHHSPYIYTFGGGTKLEIK
A. 0.727

Q. // repeat for KB001 mouse Fab VH S28Y (Fab, V domains shown) VH: EVQLKQSGPGLVAPSQSLSITCTVSGFYLSIYSVHWVRQPPGKGLEWLGMIWGGGSSDYNSALKSRLSISKDNSKSQVFLKMNSLQTDDTAMYYCARNGNFYAMDYWGQGTSVTVSS VL: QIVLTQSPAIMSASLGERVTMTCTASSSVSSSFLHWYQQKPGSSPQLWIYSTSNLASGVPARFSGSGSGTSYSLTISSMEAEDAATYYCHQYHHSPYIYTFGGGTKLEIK and report
A. 0.437

Hey, just so you know, these numbers are from patent US20240400654A1.
